Measured values drawn from patent US20230035798A1 for this set.

Overview of reported binding, % of WT across a group of binders:
Molecular target: T1, membrane LIGHT T191A (human, UniProt O43557 1-240)
T1 chain: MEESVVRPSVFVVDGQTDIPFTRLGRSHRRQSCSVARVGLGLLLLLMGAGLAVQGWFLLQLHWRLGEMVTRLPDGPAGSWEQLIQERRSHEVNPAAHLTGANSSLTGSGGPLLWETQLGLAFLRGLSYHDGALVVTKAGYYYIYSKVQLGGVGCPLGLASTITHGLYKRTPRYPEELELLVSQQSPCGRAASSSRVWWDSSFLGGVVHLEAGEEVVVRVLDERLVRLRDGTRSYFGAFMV
Test: flow cytometry, transfected HEK293FF, mAb at EC50

BINDER: 2E08 (antibody, human IgG4, V domains shown, chimeric human IgG4 (S-to-P, L-to-E at 248), human CL; also called Parental 2E08) VH: QVQMKESGAELVRPGVSVKISCKGSGYTFTDYAIHWVKQSHAKTLEWIGVISTYYGDASYNQKFKGKATMTVDKSSSTAYMELARLTSDDSAIYYCARSRGEYGNYDAMDYWGQGTSVTVSS VL: DIVLTQSPASLAVSLGQRATISCKASQSVDYDGDSYMNWYQQKPGQPPKLLIYAASNLESGIPARFSGSGSGTDFTLNIHPVEEEDAATYYCQQSNEDPLTFGAGTKLELK
binding, % of WT: 22%

Provide only the value of recorded binding, % of WT for 3A07 (antibody, human IgG4, V domains shown, chimeric human IgG4 (S-to-P, L-to-E at 248), human CL; also called Parental 3A07) VH: QVQLQQSGAELVRPGAPVTLSCKASDYTFTDSEIHWVKQTPVHGLEWIGEIDPETGGTAYNQKFKGKATLTADKSSSTAYMELRSLTSEDSAVYYCSRETDYFFDYWGQGTTLTVSS VL: ENVLTQSPAIMSASPGEKVTMTCSASSSVSYMYWYQQRPGSSPRLLIYDTSNLASGVPVRFSGSGSGTSYSLTISRMEAEDAATYYCQQWSSYPLTFGSGTKLEIK
4%
